These entries and their values trace back to patent US20200239555A1.

biological target: T1, native human ApoC3 (human, UniProt P02656 21-99); test: SPR, ApoC3 over captured IgG1, pH 5.5
T1 construct: also called nhuApoC3; native huApoC3
T1 sequence (P02656 21-99): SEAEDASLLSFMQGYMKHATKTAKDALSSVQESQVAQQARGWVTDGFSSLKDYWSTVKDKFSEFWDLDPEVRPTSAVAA
Field: label. Allowed values: Satisfied (koff < 0.03 s⁻¹) or Not satisfied (koff >= 0.03 s⁻¹).

Quick check: koff of mAb19 (antibody, IgG1, V domains shown, Produced as full length IgG1 (kappa) in ExpiCHO-S cells; also called humanized anti-ApoC3 antibody mAb19) VH: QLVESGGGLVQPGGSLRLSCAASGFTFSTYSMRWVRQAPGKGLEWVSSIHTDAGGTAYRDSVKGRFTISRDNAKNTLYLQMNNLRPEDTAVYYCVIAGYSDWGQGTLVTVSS VL: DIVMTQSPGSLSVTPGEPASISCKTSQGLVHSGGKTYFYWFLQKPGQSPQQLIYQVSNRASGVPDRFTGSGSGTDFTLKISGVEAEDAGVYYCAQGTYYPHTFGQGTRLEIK under 0.03 s⁻¹?
Satisfied

Quick check: koff of mAb4 (antibody, IgG1, V domains shown, Produced as full length IgG1 (kappa) in ExpiCHO-S cells; also called humanized anti-ApoC3 antibody mAb4) VH: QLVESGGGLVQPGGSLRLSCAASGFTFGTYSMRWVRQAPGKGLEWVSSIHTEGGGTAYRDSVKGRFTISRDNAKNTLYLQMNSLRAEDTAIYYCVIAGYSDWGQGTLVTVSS VL: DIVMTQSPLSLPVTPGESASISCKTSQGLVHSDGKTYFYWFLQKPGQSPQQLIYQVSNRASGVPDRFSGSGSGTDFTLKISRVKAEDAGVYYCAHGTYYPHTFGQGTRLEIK under 0.03 s⁻¹?
Not satisfied

Quick check: koff of mAb10 (antibody, IgG1, V domains shown, Produced as full length IgG1 (kappa) in ExpiCHO-S cells; also called humanized anti-ApoC3 antibody mAb10) VH: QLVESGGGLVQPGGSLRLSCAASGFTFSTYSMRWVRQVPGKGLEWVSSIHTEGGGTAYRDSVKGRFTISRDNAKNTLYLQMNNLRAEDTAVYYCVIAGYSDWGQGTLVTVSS VL: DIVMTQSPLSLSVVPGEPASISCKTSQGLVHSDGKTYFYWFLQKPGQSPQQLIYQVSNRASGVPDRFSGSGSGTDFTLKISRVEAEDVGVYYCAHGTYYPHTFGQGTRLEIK under 0.03 s⁻¹?
Satisfied

Quick check: koff of mAb12 (antibody, IgG1, V domains shown, Produced as full length IgG1 (kappa) in ExpiCHO-S cells; also called humanized anti-ApoC3 antibody mAb12) VH: QLVESGGGLVQPGGSLRLSCAASGFTFSTYSMRWVRQVPGKGLEWVSSIHTDAGGTAYRDSVKGRFTISRDNAKNTLYLQMNSLRPEDTAIYYCVIAGYSDWGQGTLVTVSS VL: DIVMTQSPLSLSVTPGEPASISCKTSQGLVHSDGKTYFYWFLQKPGQSPQQLIYQVSNRASGVPDRFTGSGSGTDFTLKISRVKAEDVGVYYCAHGTYYPHTFGQGTRLEIK under 0.03 s⁻¹?
Satisfied

Quick check: koff of mAb2 (antibody, IgG1, V domains shown, Produced as full length IgG1 (kappa) in ExpiCHO-S cells; also called humanized anti-ApoC3 antibody mAb2) VH: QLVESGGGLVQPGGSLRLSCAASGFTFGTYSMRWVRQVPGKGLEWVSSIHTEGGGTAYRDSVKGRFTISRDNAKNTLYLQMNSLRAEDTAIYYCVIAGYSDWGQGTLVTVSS VL: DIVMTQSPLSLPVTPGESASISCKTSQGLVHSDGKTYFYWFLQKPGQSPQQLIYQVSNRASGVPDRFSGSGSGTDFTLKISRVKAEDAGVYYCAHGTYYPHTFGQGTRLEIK under 0.03 s⁻¹?
Satisfied
